# system name: Protein farnesyltransferase (Bos taurus, UniProt P29702+P49355)
# assay remarks: Inhibition of bovine farnesyltransferase
endpoint label: IC50 (nM)

Examples from the recorded data:
# compound smiles, unit info, IC50
records = [
    ("N#Cc1ccc(OCc2cncn2Cc2ccc(C#N)c(-c3cccc4ccccc34)c2)cc1", "nM", 0.32),
    ("CC(=O)Nc1cccc(-c2cc(C#N)ccc2COCc2cncn2Cc2ccc(C#N)cc2)c1", "nM", 13),
    ("CCOc1cccc(-c2cc(C#N)ccc2COCc2cncn2Cc2ccc(Cl)cc2)c1", "nM", 1.4),
    ("N#Cc1ccc(COCc2cncn2Cc2ccc(C#N)cc2-c2cccc(Cl)c2)c(-c2cccc(Cl)c2)c1", "nM", 10),
    ("N#Cc1ccc(Cn2cncc2COCc2ccc(C#N)cc2-c2ccc(C(F)(F)F)cc2)cc1", "nM", 4.3),
    ("N#Cc1ccc(Cn2cncc2COCc2ccc(C#N)cc2-c2cccc3c2OCO3)cc1", "nM", 0.81),
]

[1] N#Cc1ccc(COCc2cncn2Cc2ccc(C#N)nc2)c(-c2ccc3c(c2)OCO3)c1
[2] N#Cc1ccc(Cn2cncc2COCc2cnc(C#N)cc2-c2cccc(Cl)c2)cc1
Prompt line: Please choose the item with the lower IC50 value from this pair: 1 and 2 Please respond with the label that marks your chosen entry.
Response line: 1
(1: 3 nM, 2: 4.3 nM)

* * *

In this section we review reported IC50 values for a set of compounds.
# system name: Geranylgeranyl transferase type I (Bos taurus, UniProt P29702+Q5EAD5)
# assay remarks: Inhibition of bovine Geranylgeranyltransferase

Examples from the recorded data:
# compound smiles, system name, IC50
records = [
    ("CCOc1cccc(-c2cc(C#N)ccc2COCc2cncn2Cc2ccc(C#N)nc2)c1", "Geranylgeranyl transferase type I (Bos taurus, UniProt P29702+Q5EAD5)", "> 10 µM"),
    ("COc1cccc(-c2cc(C#N)ccc2COCc2cncn2Cc2ccc(C#N)cn2)c1", "Geranylgeranyl transferase type I (Bos taurus, UniProt P29702+Q5EAD5)", "> 10 µM"),
    ("N#Cc1ccc(COCc2cncn2Cc2ccc(C#N)cc2-c2cccc3ccccc23)cc1", "Geranylgeranyl transferase type I (Bos taurus, UniProt P29702+Q5EAD5)", "2.1 µM"),
    ("N#Cc1ccc(COCc2cncn2Cc2ccc(C#N)nc2)c(-c2cccc(Cl)c2)c1", "Geranylgeranyl transferase type I (Bos taurus, UniProt P29702+Q5EAD5)", "> 10 µM"),
    ("COc1cccc(-c2cc(C#N)ccc2COCc2cncn2Cc2ccc(Cl)cc2)c1", "Geranylgeranyl transferase type I (Bos taurus, UniProt P29702+Q5EAD5)", "> 10 µM"),
    ("Cn1cncc1[C@@](N)(c1ccc(Cl)cc1)c1ccc2c(c1)c(-c1cccc(Cl)c1)cc(=O)n2C", "Geranylgeranyl transferase type I (Bos taurus, UniProt P29702+Q5EAD5)", "1.1 µM"),
    ("N#Cc1ccc(Cn2cncc2COCc2ccc(C#N)c(-c3cccc4ccccc34)c2)cc1", "Geranylgeranyl transferase type I (Bos taurus, UniProt P29702+Q5EAD5)", "1.3 µM"),
    ("Cc1ccc(-c2cc(C#N)ccc2COCc2cncn2Cc2ccc(C#N)cc2)cc1C", "Geranylgeranyl transferase type I (Bos taurus, UniProt P29702+Q5EAD5)", "> 10 µM"),
    ("CCOc1cccc(-c2cc(C#N)ccc2COCc2cncn2Cc2ccc(Cl)cc2)c1", "Geranylgeranyl transferase type I (Bos taurus, UniProt P29702+Q5EAD5)", "> 10 µM"),
    ("COc1ccc(-c2cc(C#N)ccc2COCc2cncn2Cc2ccc(C#N)cc2)cn1", "Geranylgeranyl transferase type I (Bos taurus, UniProt P29702+Q5EAD5)", "> 10 µM"),
]

Below: the item to evaluate.
Prompt line: Read off the recorded IC50 for "N#Cc1ccc(COCc2cncn2Cc2ccc(C#N)nc2)c(-c2ccc3c(c2)OCO3)c1"
Response line: > 10 µM
